Test Method Notes: chemical genetic growth profiling, strain panel (AID 1159580);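 note: tested at 20 µM; growth read once vehicle control cultures reached saturation at 30 °C; 1 = growth at the plate median or of vehicle wells; lower values mean less growth of the strain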
Test Settings: S. cerevisiae deletion strains, growth OD, locus YNL067W, strain RPL9B, active compounds read low
The whole screen tested about 5,500 compounds, of which about 2,000 (36%) were called active. Inconclusive results (about 18%) are left out. The list shows a part of the results.
Quantity Measured: normalized growth
// print number alone

Answered cases to consult:
(Q) # lookup: normalized growth of "COc1cc2ccc(=O)oc2c(OC)c1OC"
(A) 1.02

(Q) # lookup: normalized growth of "N#Cc1ccc2c(c1)N(CCCN1CCC(O)CC1)c1ccccc1S2"
(A) 1.01

(Q) # lookup: normalized growth of "O=c1cc(-c2ccc(O)cc2)oc2cc(O[C@@H]3O[C@H](CO)[C@@H](O)[C@H](O)[C@H]3O[C@@H]3OC[C@](O)(CO)[C@H]3O)cc(O)c12"
(A) 1.02

(Q) # lookup: normalized growth of "Nc1ncnc2c1ncn2[C@@H]1O[C@H](CO)[C@@H](O)[C@@H]1O"
(A) 1.01

(Q) # lookup: normalized growth of C[C@]12CCC3c4ccc(O)cc4CCC3C1CC[C@@H]2OC(=O)CCC1CCCC1 (stereo partly specified)
(A) 0.988

---
(Q) # lookup: normalized growth of "O=c1n(CCCN2CCN(c3cccc(Cl)c3)CC2)nc2ccccn12"
(A) 0.969

----------
// reported normalized growth for each item listed
Test Method Notes: chemical genetic growth profiling, strain panel (AID 1159580);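 note: tested at 20 µM; growth read once vehicle control cultures reached saturation at 30 °C; 1 = growth at the plate median or of vehicle wells; lower values mean less growth of the strain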
Test Settings: S. cerevisiae deletion strains, growth OD, locus YER016W, strain bim1, active compounds read low
About 2,000 (36%) of roughly 5,500 compounds were called active. Another 18% or so got no clear call; they are omitted. The list shows a part of the results.
// print number alone

Answered cases to consult:
(Q) # lookup: normalized growth of "Cc1c(N(C)CS(=O)(=O)O)c(=O)n(-c2ccccc2)n1C"
(A) 1.01

(Q) # lookup: normalized growth of CC(=O)O[C@H]1CC2CCC3C(CC[C@@]4(C)C3C[C@H]([N+]3(C)CCCCC3)[C@@H]4OC(C)=O)[C@@]2(C)C[C@@H]1[N+]1(C)CCCCC1 (some centres undefined)
(A) 1.02

(Q) # lookup: normalized growth of "COc1ccc(Cc2nccc3cc(OC)c(OC)cc23)cc1OC"
(A) 0.996

(Q) # lookup: normalized growth of "CC1(C)S[C@@H]2[C@H](NC(=O)COc3ccccc3)C(=O)N2[C@H]1C(=O)O"
(A) 1

(Q) # lookup: normalized growth of CC(=O)Oc1ccc2c(c1)CCC1C2CCC2(C)C1CC(OC(C)=O)C2OC(C)=O (centres undefined)
(A) 0.973

---
(Q) # lookup: normalized growth of CC(=O)OCC(=O)[C@@]1(O)CCC2C3CCC4=CC(=O)CC[C@]4(C)[C@@]3(F)[C@@H](O)C[C@@]21C (some centres undefined)
(A) 1

(Q) # lookup: normalized growth of "CC(C)=CCOc1cc2oc(=O)ccc2cc1O"
(A) 0.962

(Q) # lookup: normalized growth of "CCCCC(=O)N(Cc1ccc(-c2ccccc2-c2nn[nH]n2)cc1)[C@H](C(=O)O)C(C)C"
(A) 0.999

(Q) # lookup: normalized growth of "CC1(C)C=Cc2c(cc3occ(-c4ccc5c(c4)OCO5)c(=O)c3c2O)O1"
(A) 0.988

(Q) # lookup: normalized growth of "COc1cc2c(cc1-c1coc3c4c(c(OC)cc3c1=O)OC(C)(C)C=C4)OCO2"
(A) 1.03

(Q) # lookup: normalized growth of "Nc1ncnc2nc[nH]c12"
(A) 0.994

(Q) # lookup: normalized growth of "OCCN1CCN(CCCN2c3ccccc3Sc3ccc(Cl)cc32)CC1"
(A) 1

(Q) # lookup: normalized growth of "O=c1cc(-c2ccc(O)cc2)oc2cc(O[C@@H]3O[C@H](CO)[C@@H](O)[C@H](O)[C@H]3O[C@@H]3OC[C@](O)(CO)[C@H]3O)cc(O)c12"
(A) 1.01

(Q) # lookup: normalized growth of "CN1CCN(CCCN2c3ccccc3Sc3ccc(Cl)cc32)CC1"
(A) 0.972

(Q) # lookup: normalized growth of "COc1ccc2ccc(=O)oc2c1CC=C(C)C"
(A) 0.91

(Q) # lookup: normalized growth of "O=c1c(-c2ccc3c(c2)OCO3)coc2cc(O)ccc12"
(A) 0.988

(Q) # lookup: normalized growth of "O=c1n(CCCN2CCN(c3cccc(Cl)c3)CC2)nc2ccccn12"
(A) 0.987

(Q) # lookup: normalized growth of "COc1cc2ccc(=O)oc2cc1O"
(A) 0.949

(Q) # lookup: normalized growth of "COc1cc2ccc(=O)oc2c2ccoc12"
(A) 1
